Reference source: ChEMBL document CHEMBL1126346

# TARGET_UNDER_TEST: Type-1 angiotensin II receptor (Oryctolagus cuniculus)
# PROCEDURE_TEXT: In vitro inhibition of ATII induced contractions of the isolated rabbit aorta.
VALUE_KIND: pKB

Some solved entries appear below for comparison.
> print(dat)
                         structure.notation  meas.value
1  CCCCc1nn(CC(C)(C)C)c(C(=O)O)c1Cc1ccc(-c2ccccc2-c2nn[nH]n2)cc1        10.6
2  CCCCc1c(Cc2ccc(-c3ccccc3-c3nn[nH]n3)cc2)c(C(=O)O)nn1CCCC           8

A: CCCCc1nn(CC(C)C)c(C(=O)O)c1Cc1ccc(-c2ccccc2-c2nn[nH]n2)cc1
B: CCCCc1c(Cc2ccc(-c3ccccc3-c3nn[nH]n3)cc2)c(C(=O)O)nn1CC(F)(F)F
Challenge: // pick larger pKB from pair: A vs B Your answer should be the label attached to the chosen record.
Response given: A
